- assay: yeast display, Sf9 membrane polyspecificity reagent, FACS + sequencing; frameworks hold sequencing errors
property-measured: polyreactivity (PSR sort gate)

For orientation, consider the following solved cases.
# query: polyreactivity (PSR sort gate) of entry `QVQLVESGGGLVQAGGSLRLSCAASGFILRKYAMGWYRQAPGKERELVAAINGRGGTYYADSVKGRFTISRDNAKNTVYLQMNSLKPEDTAVYYCAAVEWYGYYTYTIDAYDYWGQGTQVTVSS` high polyreactivity

Thanks! And `QVQLVESGGGLVQAGGSLRLSCAASGITFYVNTKGWYRQAPGKEREVVAAIDWTDGGTYYADSVKGRFTISRDNAKNTVYLQMNSLKPEDTAVYYCALDYYWDIIGLYGYLAYDLDYWGQGTQVTVSS` ? low polyreactivity

Thanks! And `QVQLVESGGGLVQAGGSLRLSCASSGFTFYYSMGLYRQAPVKERELVASINYSGGSTYYADSVKGRFTISRDNGKNTLYLQMNSLKAEETGVYYCAVDVRPRGLMYYWGQGTQVTVSS` ? low polyreactivity

Thanks! And `QVQLVESGGGLVQAGGSLRLSCAASGSIFSYYAMGGYRQAPGKARELVASISWNGTSTYYADSVKGRFTISRDNAKNTVYLQMNSLKPEDTAVYYCNVRFNYRGTYDYWGQGTQVTVSS` ? low polyreactivity

// switching to the query sequence
# query: polyreactivity (PSR sort gate) of entry `QVQLVESGGGLVQAGGSLRLSCAASGSTFSRYAMGWYRQAPGKERELVAAITSSGGSSYYADSVKGRFTISRDNAKNTVYLQMNSLKPEDTAVYYCAASYQVRYDYWGQGTQVTVSS` high polyreactivity

----------
- assay: yeast display, Sf9 membrane polyspecificity reagent, FACS + sequencing; frameworks hold sequencing errors
property-measured: polyreactivity (PSR sort gate)

# query: polyreactivity (PSR sort gate) of entry `QVQLVESGGGLVQAGCSLRLSCAASGFTFGSNEMGWYRPAPGKLRELVAAINYSGVRTYYADSVKGRFTISRDKAMNNVYLQMKSLKPEETAVDFCAKTRSKPISFDYWGQGTQVTVSS` high polyreactivity

Thanks! And `QVQLVESGGGLVQAGGSLRLSCDASGSIFIYYAMGWYRQAPGKERELVAAIDYSGDSTYYADSVKGRFTISRDNAKNTVYGQMNSLKPEDTAVYYCARRGFLVHWPRPSYDYWGQGTQVTVSS` ? low polyreactivity

Thanks! And `QVQLVESGGGLVQAGGSLRLSCAAAGSTFRYNDMGWYRQAPGKERELVAAITRSGGSTYYADSVKGRFTISRDTAKNTVYLQMNSLKPEDTAVYYCNRGLRYVLAEDIAVPRVPEYYWGQGTQVTVSS` ? low polyreactivity

Thanks! And `QVQLVESGGGLVQAGGSRRLSCAASGSTFQYNAMGWYRQAPGKDREWVAAITGSGGSTYYADSVKGRFTISRDNSKNTVYLQMNSLKPEDTAVYYCAKRVRSFNWVLARHKYDYWGQGTQVTVSS` ? low polyreactivity

Thanks! And `QVQLVESGGGLVQAGGSLRLSCAASGFILTSYAMGWNRQAPGKERELVAAISSRGGRTYYADSVKGRFTISRDNAKNTVYLQMNSLKPEDTAVYYCNAVVYVVGDFDYWGQGTQVTVSS` ? high polyreactivity

Thanks! And `QVQLVESGGGLVQAGGSLRLSCAASGSTFWYYAMGWYRPAPGKERELVAAITISGGSTYYADSVKGRFTISRDNAKNTVYLQMNSLKPEDTAVYYCATDDTHRVGWFDYWGQGTQVTVSS` ? low polyreactivity

Continuing:
# query: polyreactivity (PSR sort gate) of entry `QVQLVESGGGLVQAGGSLRLSCAASGFIFSSYAMGWYRQAPGKESELVAAITSGGSTNYADSVKGRFTISRDNAKNTVYLQMNSLKPEDTADYYCATLPGGSWFFHWWSTGGDDEYWGQGTQVTVSS` low polyreactivity

Thanks! And `QVQLVESGGGLVQAGGSLRLSCAASGFTFGVNAMGWYRQAPGKERELVAVITSGGNTYYADSVKWRFTISRDNAKNTVYLQMNSLKPEDTAVYYCAAYGRASWERDYWGQGTQVTVSS` ? low polyreactivity

Thanks! And `QVQLVESGGGLVQAGGSLRLSCAASGITFVRNAMGWYRQAPGKEREFVAAISWSGGSTYYADSVKGRFTISRDNAKNTVYLQMNSLKPEDTAVYYCAAAYPRVTYKYGYYWGQGTQVTVSS` ? high polyreactivity

Thanks! And `QVQLVESGGGLVQAGGSLRLSCAASGRTFSQYAMGWYRQAPGKERELVAAISWSGGSTYYADSVKGRFTISRDNAKNTVYLQMNSLKPEDTAVYYCAAVGKGSARSSYPVLYDYCGQGTQVTVSS` ? low polyreactivity

Thanks! And `QVQLVESGGGLVQAGGSLRLSCAASGIIFYRNAMGWYRQAPGNERELVAAITSSGGRTYYADSVKGRFTISRDNAKNTVYLQMNSLKPEDTPVYYCAATRLYWKIFYGDGDYWGQGTQVTVSS` ? high polyreactivity
